measurement_setup: buffer; pH 7.4; 200.0 µM
Threshold rule: solubility kinetic greater than or equal to 6 µg/mL is True; below that, False.

Worked examples follow.
Input: Entry O=S1(=O)CC(O)C(N(CCO)C(=S)Nc2ccccc2)C1 (stereo not given) : is its solubility kinetic no less than 6 µg/mL?
Output: True

Input: Entry O=C(c1cccc(Oc2ccc([N+](=O)[O-])cc2)c1)N1CCOCC1 : is its solubility kinetic no less than 6 µg/mL?
Output: True

Input: Entry Cc1c(C=O)c2ccccn2c1C(=O)c1ccc(Cl)c([N+](=O)[O-])c1 : is its solubility kinetic no less than 6 µg/mL?
Output: False

Input: Entry O=C(COC(=O)c1ccc(O)cc1O)Nc1ccc(Cl)cn1 : is its solubility kinetic no less than 6 µg/mL?
Output: True

Input: Entry Cc1ccc(C(=O)CCC(=O)Nc2ccccc2F)cc1 : is its solubility kinetic no less than 6 µg/mL?
Output: False

Next:
Input: Entry CCc1ccc(CCC(=O)Nc2ccc(Br)cc2)o1 : is its solubility kinetic no less than 6 µg/mL?
Output: False

----------
// values below are reported log10(solubility kinetic)
measurement_setup: buffer; pH 7.4; 200.0 µM
Reminder: these figures are log10 of reported solubility kinetic, in µg/mL before transformation.

Solved cases below.
Reported log10(solubility kinetic) for Cc1ccc(Nc2nc(-c3cccs3)cs2)nc1 was -0.10

Reported log10(solubility kinetic) for NC(=O)/C(=C\c1ccco1)NC(=O)c1ccc(Br)o1 was 1.63

Reported log10(solubility kinetic) for O=C1NC2=C(C(=O)CCC2)C(c2ccc(OC(F)F)cc2)N1 (configuration not stated) was 1.62

Next:
Reported log10(solubility kinetic) for O=C(CSc1ncnc2ccccc12)NCc1ccc2c(c1)OCO2 was 1.00

Reported log10(solubility kinetic) for CN(C)C(=O)c1cc(C(=O)Cc2ccccc2)c[nH]1 was 1.58

Reported log10(solubility kinetic) for Cc1ccn2c(NC3CCCC3)c(-c3cccs3)nc2c1.Cl was 1.17

----------
// values below are reported solubility kinetic
measurement_setup: buffer; pH 7.4; 200.0 µM

Reported solubility kinetic for CC1(c2ccc(Cl)cc2)NC(=O)N(CC(=O)N2CCc3ccccc32)C1=O (stereo unspecified) was 1.5 µg/mL

Reported solubility kinetic for Nc1nc2ccc(NC(=O)c3ccco3)cc2s1 was > 38.9 µg/mL

Reported solubility kinetic for Cc1cc(C)c2oc(-c3cccc(N)c3)nc2c1 was 3 µg/mL

Next, consider the following molecule.
Reported solubility kinetic for Cc1c(C=C2C(=O)c3ccccc3C2=O)cc(C#N)n1C was 0.6 µg/mL

----------
measurement_setup: buffer; pH 7.4; 200.0 µM
outcome_measure: log10 solubility kinetic (log10 of the value in µg/mL)
Reminder: these figures are log10 of reported solubility kinetic, in µg/mL before transformation.

Solved cases below.
Reported log10 solubility kinetic for Cc1cc(NC(=O)Cn2c(=O)oc3ccc(Cl)cc32)no1 was 0.18

Reported log10 solubility kinetic for COc1nc(C)cc(C)c1S(=O)(=O)c1ccccc1 was 1.62

Reported log10 solubility kinetic for CC(C)C(=O)N1CCC(Cc2ccccc2)CC1 was 1.53

Next:
Reported log10 solubility kinetic for COc1ccc(C(=O)Nc2cccc(S(=O)(=O)NCc3ccco3)c2)cc1 was 0.94

Reported log10 solubility kinetic for O=S(=O)(Cc1cc(Cl)nc(-c2cccnc2)n1)c1ccccc1 was 1.61

Reported log10 solubility kinetic for CCN(CC)S(=O)(=O)c1ccc(-c2csc(C)n2)cc1 was 1.57

Reported log10 solubility kinetic for CC1Cc2ccccc2N1CC(=O)NC(=O)NC1CCCC1 (stereo not drawn) was 0.84

Reported log10 solubility kinetic for O=C(Nc1ccc(Br)cc1)C1CC(c2c(F)cccc2Cl)=NO1 (stereo not drawn) was 0.83

Reported log10 solubility kinetic for O=C(Nc1ccc([N+](=O)[O-])cc1)Nc1cnccn1 was 0.46

Reported log10 solubility kinetic for C=CCn1c(SCC(N)=O)nc2sc3c(c2c1=O)CCC3 was 1.59

Reported log10 solubility kinetic for COc1ccc2c(C)cc(SCC(=O)NC3CCCC3)nc2c1 was 0.82

Reported log10 solubility kinetic for CC(C)CN(C(=O)CN(C)CC(=O)Nc1ccc(Cl)c(C(F)(F)F)c1)c1c(N)n(CC(C)C)c(=O)[nH]c1=O was 0.78

Reported log10 solubility kinetic for Cc1ccc2nc(SCC(=O)NC3CCCC3)[nH]c2c1 was 1.56

Reported log10 solubility kinetic for CCc1ccc(Nc2ncc3c(n2)CC(C)(C)CC3=O)cc1 was 0.04

Reported log10 solubility kinetic for O=C(CCC(=O)N1CCCCCC1)Nc1ccc([N+](=O)[O-])cc1 was 0.96

Reported log10 solubility kinetic for O=C(COC(=O)c1ccc(O)cc1)Nc1ccccc1[N+](=O)[O-] was 0.63

Reported log10 solubility kinetic for C#CCOc1c(Cl)cc(/C=C2/C(=O)ON=C2C)cc1OC was 1.64
